- tested_target: rat MCH1 receptor (Rattus norvegicus, UniProt P97639)
- Construct: expressed in transfected cells; host or cells: Human embryonic kidney Peak rapid 293 cells (Peakr293), transient, calcium phosphate; membranes
- Sequence (P97639 whole entry): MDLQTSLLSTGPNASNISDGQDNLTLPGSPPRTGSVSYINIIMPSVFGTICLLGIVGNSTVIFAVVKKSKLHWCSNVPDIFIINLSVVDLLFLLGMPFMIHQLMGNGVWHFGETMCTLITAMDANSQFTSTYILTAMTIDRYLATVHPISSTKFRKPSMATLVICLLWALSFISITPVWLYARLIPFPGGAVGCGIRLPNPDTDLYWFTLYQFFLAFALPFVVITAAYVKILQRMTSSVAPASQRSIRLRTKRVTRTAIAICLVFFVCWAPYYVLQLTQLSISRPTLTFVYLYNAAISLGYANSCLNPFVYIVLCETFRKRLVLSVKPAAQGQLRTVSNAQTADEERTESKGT
- test_protocol: Radioligand binding assay at cloned rat MCH1 receptor ([3H]Compound A displacement)
- setup_conditions: cloned rat MCH1, membranes of transfected Peakr293 cells, 0.08 nM [3H]Compound A, 25° C., 90 minutes; read-out: KI
Field 'label' (enum: Criterion met / Criterion not met). Set to Criterion met when Ki is strictly under 200 nM; else Criterion not met.

* Cc1ccc(C(C(=O)NCCCN2CCC3(CC2)OCc2ccccc23)c2ccc(C)cc2)cc1 [Example 78] | Criterion met
* Cc1onc(-c2c(F)cccc2Cl)c1C(=O)NCCCCCCN1CCC2(CCc3ccccc32)CC1 [Example 12] | Criterion not met
* O=C(NCCCN1CCC2(CCCc3ccccc32)CC1)C(c1ccccc1)c1ccccc1 [Example 96] | Criterion met
* O=C(NCCCN1CCC2(C=Cc3ccccc32)CC1)C(c1ccccc1)c1ccccc1 [Example 38] | Criterion met
* O=C(NCCN1CCC2(CCc3ccccc32)CC1)c1cccc(Cl)c1 [Example 43] | Criterion not met
* O=C(NCCCN1CCC2(CC1)Cc1ccccc1C2)C(c1ccccc1)c1ccccc1 [Example 61] | Criterion met
* CC(C)(C)c1cc(C(=O)NCCCCCN2CCC3(C=Cc4ccccc43)CC2)n(Cc2ccccc2)n1 [Example 37] | Criterion not met
* Cc1ccc(C2(C(=O)NCCCN3CCC4(CC3)OCc3ccccc34)CCCC2)cc1 [Example 75] | Criterion not met
* Cc1ccc(C(C(=O)NCCCN2CCC3(C=Cc4ccccc43)CC2)c2ccc(C)cc2)cc1 [Example 62] | Criterion met
* O=C(NCCCCN1CCC2(CCc3ccccc32)CC1)Nc1ccc(-c2ccccc2)cc1 [Example 28] | Criterion not met
* O=C1OC2(CCN(CCCNC(=O)C(c3ccccc3)c3ccccc3)CC2)c2ccccc21 [Example 93] | Criterion not met
* O=C(NCCCN1CCC2(C=Cc3ccccc32)CC1)C(c1ccc(Cl)cc1)c1ccc(Cl)cc1 [Example 68] | Criterion met
* O=C(NCCCN1CCC2(CCc3ccccc32)CC1)C(c1ccc(Cl)cc1)c1ccc(Cl)cc1 [Example 55] | Criterion met
* O=C(NCCCN1CCC2(C=Cc3ccccc32)CC1)C1(c2ccc(Cl)cc2)CC1 [Example 73] | Criterion not met
* O=C(NCCCCN1CCC2(CCc3ccccc32)CC1)c1cc(F)cc(F)c1 [Example 13] | Criterion not met
* Cc1ccc2c(c1)COC21CCN(CCCNC(=O)C(c2ccccc2)c2ccccc2)CC1 [Example 103] | Criterion met
* O=C(NCCCN1CCC2(C=Cc3ccccc32)CC1)C1(c2ccc(Cl)cc2)CCCCC1 [Example 71] | Criterion met
* O=C(NCCN1CCC2(CCc3ccccc32)CC1)C(c1ccccc1)c1ccccc1 [Example 41] | Criterion met
* O=C(NCCCN1CCC2(CC1)C(=O)CCc1ccccc12)C(c1ccccc1)c1ccccc1 [Example 98] | Criterion not met
* O=C(NCCCCN1CCC2(CCc3ccccc32)CC1)c1cccc(Cl)c1 [Example 18] | Criterion not met
* CC(C(=O)NCCCN1CCC2(C=Cc3ccccc32)CC1)c1ccc(Cl)cc1 (stereo not shown) [Example 66] | Criterion met
* O=C(NCCCCCN1CCC2(CCc3ccccc32)CC1)Nc1cc(Cl)cc(Cl)c1 [Example 25] | Criterion not met
* O=C(NCCCN1CCC2(CC1)OCc1ccccc12)C(c1ccc(Cl)cc1)c1ccc(Cl)cc1 [Example 90] | Criterion met
* O=C1OC2(CCN(CCCNC(=O)C(c3ccc(F)cc3)c3ccc(F)cc3)CC2)c2ccccc21 [Example 95] | Criterion met
* O=C(NCCCN1CCC2(CC1)OCc1ccccc12)C1(c2ccc(Cl)cc2)CC1 [Example 89] | Criterion not met
* O=C(NCCCN1CCC2(CCc3ccccc32)CC1)C(c1ccccc1)c1ccccc1 [Example 6] | Criterion met
* O=C(NCCN1CCC2(CCc3ccccc32)CC1)c1cc(Cl)cc(Cl)c1 [Example 44] | Criterion met
* O=C(NCCCN1CCC2(CC1)OCc1ccc(Cl)cc12)C(c1ccccc1)c1ccccc1 [Example 100] | Criterion met
* O=C(NCCCN1CCC2(CCc3ccccc32)CC1)C1(c2ccc(F)cc2)CCCCC1 [Example 56] | Criterion met
* O=C(NCCCN1CCC2(C=Cc3ccccc32)CC1)C1(c2ccc(F)cc2)CCCCC1 [Example 72] | Criterion met
* O=S(=O)(NCCCCCN1CCC2(CCc3ccccc32)CC1)c1cccc(C(F)(F)F)c1 [Example 21] | Criterion not met
* O=C(NCCCCCCN1CCC2(CCc3ccccc32)CC1)c1ccc(-c2ccccc2)cc1 [Example 2] | Criterion not met

Values compiled from patent US7335665B2.
